Target: UniProtKB Q9JI35
Sequence (Q9JI35 whole entry): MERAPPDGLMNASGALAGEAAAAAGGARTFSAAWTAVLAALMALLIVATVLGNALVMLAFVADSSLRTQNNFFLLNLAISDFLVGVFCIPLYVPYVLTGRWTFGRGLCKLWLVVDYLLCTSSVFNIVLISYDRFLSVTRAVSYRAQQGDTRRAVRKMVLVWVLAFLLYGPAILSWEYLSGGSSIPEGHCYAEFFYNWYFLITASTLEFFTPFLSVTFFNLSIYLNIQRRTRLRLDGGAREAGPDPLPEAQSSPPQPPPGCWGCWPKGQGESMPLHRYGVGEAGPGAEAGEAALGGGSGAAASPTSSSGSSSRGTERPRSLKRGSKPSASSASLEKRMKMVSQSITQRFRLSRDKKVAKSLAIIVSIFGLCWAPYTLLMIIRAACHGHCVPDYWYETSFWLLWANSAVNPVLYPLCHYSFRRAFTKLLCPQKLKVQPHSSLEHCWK
Assay: Histamine H3 functional assay, guinea pig ileum (ileal longitudinal muscle, myenteric plexus)
Design: species or system tissue
Conditions: antagonist affinity from rightward shift of R-(α)-methylhistamine E/[A] curves (Schild); typical variance ±0.15 log units
Procedure: • 1. J. Med. Chem 1994, 314. • 2. WO 97/29092 Histamine H3 Functional Assay—Guinea Pig Ileum The biological activity of the compounds of the examples was measured using the ileal longitudinal muscle, myenteric plexus assay described by Paton and Aboo Zar (J. Physiol. 1968, 194, 13-33). […] All measurements were recorded isometrically (Grass FTO3 transducer). […] The experimental E/[A] curve data was expressed as the percentage inhibition of the peak height of electrically-stimulated contraction. […]
pKb (Guinea pig ileum) values, listed per item

[
  {
    "MOLECULE": "Cl.Cl.N=C(NCCCCCN1CCCC1)NCC1CCCCCC1 [Example 46]",
    "pKb (Guinea pig ileum)": 7.7
  },
  {
    "MOLECULE": "Cl.Cl.N=C(NCCCCCN1CCCCCC1)NCC12CC3CC(CC(C3)C1)C2 [Example 61]",
    "pKb (Guinea pig ileum)": 7.8
  },
  {
    "MOLECULE": "CN1C[C@H](O)C[C@@H]1CCCNS(=O)(=O)NCc1ccc(Cl)cc1 [Example 132]",
    "pKb (Guinea pig ileum)": 5.8
  },
  {
    "MOLECULE": "Cl.Cl.N=C(NCCCCCCN1CCCC1)NCC12CC3CC(CC(C3)C1)C2 [Example 77]",
    "pKb (Guinea pig ileum)": 8.0
  },
  {
    "MOLECULE": "Cl.Cl.N=C(NCCCCN1CCCC1)NCc1ccc(-c2ccccc2)cc1 [Example 54]",
    "pKb (Guinea pig ileum)": 7.1
  },
  {
    "MOLECULE": "Cl.Cl.N=C(NCCCCCN1CCCCCCC1)NCC12CC3CC(CC(C3)C1)C2 [Example 62]",
    "pKb (Guinea pig ileum)": 7.4
  },
  {
    "MOLECULE": "Cl.Cl.N=C(NCCCCCCN1CCCC1)NCC12CC3CC(CC(C3)C1)C2 [Example 31]",
    "pKb (Guinea pig ileum)": 8.0
  },
  {
    "MOLECULE": "Cl.Cl.N=C(NCCCCCCCN1CCCC1)NCC12CC3CC(CC(C3)C1)C2 [Example 32]",
    "pKb (Guinea pig ileum)": 8.0
  },
  {
    "MOLECULE": "Cl.Cl.N=C(NCCOCCN1CCCC1)NCC12CC3CC(CC(C3)C1)C2 [Example 59]",
    "pKb (Guinea pig ileum)": 7.0
  },
  {
    "MOLECULE": "CN1CCN(CCCCCNC(=N)NCC23CC4CC(CC(C4)C2)C3)CC1.Cl.Cl.Cl [Example 63]",
    "pKb (Guinea pig ileum)": 7.4
  },
  {
    "MOLECULE": "Cl.Cl.N=C(NCCCN1CCCC1)NCc1ccc2ccccc2c1 [Example 4]",
    "pKb (Guinea pig ileum)": 6.5
  },
  {
    "MOLECULE": "Cl.Cl.N=C(NCCCCCN1CCCC1)NCC1CCCCC1 [Example 41]",
    "pKb (Guinea pig ileum)": 7.5
  },
  {
    "MOLECULE": "Cl.Cl.N=C(NCCCCCN1CCCCC1)NCC12CC3CC(CC(C3)C1)C2 [Example 60]",
    "pKb (Guinea pig ileum)": 8.1
  },
  {
    "MOLECULE": "Cl.Cl.N=C(NCCCCN1CCCC1)NCC1CCCCC1 [Example 40]",
    "pKb (Guinea pig ileum)": 7.4
  },
  {
    "MOLECULE": "Cl.Cl.N=C(NCCCCCN1CCCC1)NCC12CC3CC(CC(C3)C1)C2 [Example 30]",
    "pKb (Guinea pig ileum)": 7.9
  },
  {
    "MOLECULE": "Cl.Cl.N=C(NCCCN1CCCC1)NCc1ccc(-c2ccccc2)cc1 [Example 12]",
    "pKb (Guinea pig ileum)": 6.3
  }
]
